# System: SW-620 colon
# Run Description: NCI tumour cell line growth inhibition, 48 h
Measured Attribute: TGI

compound=Nc1ccccc1N result="> 100 µM"
compound=Nc1c(C(=O)Nc2cccc(Cl)c2)sc2nc3c(cc12)C(=O)CCC3 result="> 100 µM"
compound="CC(C)(C)N(Cc1ccccc1)C(=O)/C=C\\S(=O)c1ccccc1 (stereo not given)" result="9.13 µM"
compound=O=C1C=CC2(C=C1)O[C@H](COCc1ccccc1)[C@@H](COCc1ccccc1)O2 result="0.765 µM"
compound="CC[C@@H]1/C=C/C=C/C[C@H](C)[C@@H](O)[C@@H](C)C(=O)[C@H](C)[C@@H](O)[C@H](C)C(=O)[C@H](C)[C@@H](O)[C@H](C)/C=C/C(=O)O[C@H]2[C@@H](C)[C@@H](CC1)O[C@@]1(CC[C@@H](C)[C@@H](CC(C)O)O1)[C@@H]2C (stereo not given in full)" result="> 25 µM"
compound=Cc1cn2cc(-c3cccs3)nc2s1 result="> 100 µM"
compound=CCN(CC)CC(=O)NC1c2ccccc2Oc2ccccc21 result="> 100 µM"
compound=Fc1ccc(Nc2nc(Cl)c3[nH]cnc3n2)cc1Cl result="> 100 µM"
compound=COc1cc2cc(NCc3cccc(Cl)c3)nc(C)c2cc1OC result="12.6 µM"
compound="NCCCCCC(CCN)SCC1OC(n2cnc3c(N)ncnc32)C(O)C1O (stereo not given)" result="> 1500 µM"
compound=O=c1nc2n(-c3cccc(Cl)c3)c3ccc([N+](=O)[O-])cc3cc-2c(=O)[nH]1 result="> 25 µM"
compound=COc1ccc2c(c1)[C@@H](NC(C)=O)CCc1cc(OC)c(OC)c(OC)c1-2 result="> 100 µM"
compound=CC(C)(C)CC(C)(C)c1ccc(OCCO)cc1 result="18.6 µg/mL"
compound=O=C1c2cc(Br)ccc2-c2ccc3c4ccc5c6c(ccc(c7ccc1c2c73)c64)C(=O)c1cc(Br)ccc1-5 result="> 100 µM"
compound=C=C1c2nc3ccccc3n2C=C(c2ccc(OC)cc2)N1c1ccc(OCCN2CCCCC2)cc1 result="52.3 µM"
compound=Cc1cccc2cc(/C=C/C(=O)/C=C/c3ccc(Cl)cc3)c(=O)[nH]c12 result="> 100 µM"
compound=CNC(=O)Oc1cc(C(C)C)ccc1Sc1ccc(C(C)C)cc1OC(=O)NC result="20.1 µM"
compound=O=C1NC(=O)C(c2c[nH]c3ccccc23)=C1c1c[nH]c2ccccc12 result="> 25 µM"
compound=O=S1OC(c2ccccc2)(c2ccccc2)C(c2ccccc2)(c2ccccc2)O1 result="> 100 µM"
compound=CN(Cc1cnc2nc(N)nc(N)c2n1)c1ccc(C(=O)NCCCS(=O)(=O)O)cc1 result="> 100 µM"
